Several publications report IC50 on Cytochrome P450 3A4 (Homo sapiens, UniProt P08684); those values are gathered here.
Sequence (P08684 whole entry): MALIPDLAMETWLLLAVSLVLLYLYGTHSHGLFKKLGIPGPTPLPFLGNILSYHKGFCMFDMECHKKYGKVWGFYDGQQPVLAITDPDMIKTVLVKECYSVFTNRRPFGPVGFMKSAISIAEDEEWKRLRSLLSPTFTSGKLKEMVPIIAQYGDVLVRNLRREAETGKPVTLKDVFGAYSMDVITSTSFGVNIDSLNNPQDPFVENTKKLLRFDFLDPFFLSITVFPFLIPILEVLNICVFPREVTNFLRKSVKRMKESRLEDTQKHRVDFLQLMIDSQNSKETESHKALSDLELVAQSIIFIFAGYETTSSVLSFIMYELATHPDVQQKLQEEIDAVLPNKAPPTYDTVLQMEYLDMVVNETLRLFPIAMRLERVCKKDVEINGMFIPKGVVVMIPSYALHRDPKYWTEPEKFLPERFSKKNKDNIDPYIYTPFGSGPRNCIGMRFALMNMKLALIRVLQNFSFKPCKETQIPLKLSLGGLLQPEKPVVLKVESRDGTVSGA
reported_endpoint: IC50 (µM)

> print(dat)
                                        smi  reported.result
1  CN1CCN(C(=O)OC2([C@H]3COC[C@@H](CC4CC4)N3S(=O)(=O)c3ccc(Cl)cc3)CC2)CC1=O              1.4

(P) CC(=O)N1CCC(C(=O)N2C[C@H](c3noc(C(C)(C)c4cc(C(F)(F)F)cc(C(F)(F)F)c4)n3)[C@@H](c3ccc(F)cc3C)C2)CC1
(Q) CCc1c(Cl)[nH]c2ncc(-c3ccc(N)c(C(=O)N(C)C)c3)cc12
Decide: P or Q , by lowest recorded IC50. // return label of chosen record
Q
(Q: 0.2 µM, P: 100 µM)

(a) Cc1cc2c(F)c(Oc3ncnn4cc(OCCCS(C)(=O)=O)c(C)c34)ccc2[nH]1
(b) COc1cc(C(F)(F)F)ccc1-c1nccc2cc(S(=O)(=O)Nc3ccncn3)ccc12
Name the one with the greater IC50 value, either a or b as given. // return label of chosen record
a

====

Several publications report IC50 on Cytochrome P450 3A4 (Homo sapiens, UniProt P08684); those values are gathered here.
reported_endpoint: IC50 (µM)

> print(dat)
                                   molecule  reported.endpoint  units  reported.result
1  COc1cc(NC(=O)c2cc(=O)c3ccccc3o2)c(-c2nnn(-c3ccc(CCN4CCc5cnccc5C4)cc3)n2)cc1OC               IC50     µM             1.07
2  Nc1c(C(=O)NCC(O)(CN(CCO)C(=O)c2c(Cl)cccc2Cl)C(F)(F)F)cnn1-c1ccc(F)cc1 (stereo not drawn)               IC50     µM              100
3  CCN(C)c1nc2ccc(C(=O)N(CC3CCCCC3)C[C@@H](O)[C@H](Cc3ccccc3)NC(=O)OCc3cncs3)cc2o1               IC50     µM            0.026

(a) NC(=O)[C@]12CC3CC(C1)[C@@H](OC(=O)N1CC[C@@H](Nc4cccc(C(F)(F)F)n4)C1)C(C3)C2
(b) COc1ccccc1-c1nccc(COc2ccccc2C[C@@H](Oc2ncnc3sc(-c4ccc(F)cc4)c(-c4ccc(OCCN5CCN(C)CC5)c(Cl)c4C)c23)C(=O)O)n1
Name the one with the greater IC50 value, either a or b as given. // return label of chosen record
a
(a: 4.8 µM, b: 1.8 µM)

====

Several publications report pIC50 on Cytochrome P450 3A4 (Homo sapiens); those values are gathered here.
pIC50: −log10 of the molar value.
reported_endpoint: pIC50

Here is how some compounds turned out for pIC50.
> print(dat)
                                   compound  reported.result
1  CC[C@@H](Cn1cc(C)c2ccccc21)NS(=O)(=O)c1c(N)cc(Cl)cc1Cl             6.03
2  C[C@@H]1CN(c2cccnc2C#N)CCN1C(=O)C12CC3CC(CC(C3)C1)C2             5.15
3  COc1ccc(Cn2c(=O)n(C3CCN(C(=O)C4CCN(Cc5ccncc5)CC4)CC3)c3ccccc32)cc1             6.40

(I) COCCCNc1nc2cc(C)c(C)cc2n1CC(=O)c1cc(C(C)(C)C)c(O)c(C(C)(C)C)c1
(II) CC(C)(CCN(C[C@H]1Cc2ccccc2CN1)[C@H]1CCCc2cccnc21)CNC1CCOCC1
Decide: I or II , by lowest recorded pIC50. // return label of chosen record
I
